Target: catalytic domain of MMP-14 (cdMMP-14) (human, UniProt P50281 114-287, limits assumed, biotinylated (Sulfo-NHS-LC-Biotin) where immobilised via streptavidin)
Experiment: cell-based or functional assay
Tag: condition met if measured Inhibition potency (FRET IC50) is not below 200 nM, condition not met if it is.

binder	class_label
Fab R2C12 (Fab, V domains shown) VH: EVQLVESGGGLVQPGGSLRLSCAASGFNISSSYMHWVRQAPGKGLEWVASIYSYSSYTYYADSVKGRFTISADTSKNTAYLQMNSLRAEDTAVYYCARSDSWVQGRDFCYYSAWVGYGMDYWGQGTLVTVSS VL: DIQMTQSPSSLSASVGDRVTITCRASQSVSSAVAWYQQKPGKAPKLLIYSASSLYSGVPSRFSGSRSGTDFTLTISSLQPEDFATYYCQQGYYALFTFGQGTKVEIKR	condition not met
Fab R3C8 (Fab, V domains shown) VH: EVQLVESGGGLVQPGGSLRLSCAASGFNFSSSSIHWVRQAPGKGLEWVASIYPSYSYTYYADSVKGRFTISADTSKNTAYLQMNSLRAEDTAVYYCARHCLLRSRRCEMSTKTRELNVYRYAMDYWGQGTLVTVSS VL: DIQMTQSPSSLSASVGDRVTITCRASQSVSSAVAWYQQKPGKAPKLLIYSASSLYSGVPSRFSGSRSGTDFTLTISSLQPEDFATYYCQQWPVGSSYPITFGQGTKVEIKR	condition met
Fab R2C22 (Fab, V domains shown) VH: EVQLVESGGGLVQPGGSLRLSCAASGFNIYSSYMHWVRQAPGKGLEWVASIYSSYGSTYYADSVKGRFTISADTSKNTAYLQMNSLRAEDTAVYYCARHSRDGWQHWFGNWAGLHSYGMDYWGQGTLVTVSS VL: DIQMTQSPSSLSASVGDRVTITCRASQSVSSAVAWYQQKPGKAPKLLIYSASSLYSGVPSRFSGSRSGTDFTLTISSLQPEDFATYYCQQYYHYGYYLITFGQGTKVEIKR	condition not met
Fab R3C10 (Fab, V domains shown) VH: EVQLVESGGGLVQPGGSLRLSCAASGFNIYYSSMHWVRQAPGKGLEWVASISPYYGYTYYADSVKGRFTISADTSKNTAYLQMNSLRAEDTAVYYCARGSLRRDFNLVVRSSWDIRSNYVMDYWGQGTLVTVSS VL: DIQMTQSPSSLSASVGDRVTITCRASQSVSSAVAWYQQKPGKAPKLLIYSASSLYSGVPSRFSGSRSGTDFTLTISSLQPEDFATYYCQQSWPYPITFGQGTKVEIKR	condition met
Fab 3A2 (Fab, V domains shown, also called R3C9; not shown: His tag at the C-terminus of the heavy chain) VH: EVQLVESGGGLVQPGGSLRLSCAASGFNLSSSSMHWVRQAPGKGLEWVASIYPSYSYTYYADSVKGRFTISADTSKNTAYLQMNSLRAEDTAVYYCARVKLQKDKSHQWIRNLVATPYGRYVMDYWGQGTLVTVSS VL: DIQMTQSPSSLSASVGDRVTITCRASQSVSSAVAWYQQKPGKAPKLLIYSASSLYSGVPSRFSGSRSGTDFTLTISSLQPEDFATYYCQQYGYPITFGQGTKVEIKR	condition not met
Fab R2C14 (Fab, V domains shown) VH: EVQLVESGGGLVQPGGSLRLSCAASGFNIYSSSIHWVRQAPGKGLEWVASIYSYSGYTYYADSVKGRFTISADTSKNTAYLQMNSLRAEDTAVYYCARVSNRYNRSSASIAGLQLFRPYGMDYWGQGTLVTVSS VL: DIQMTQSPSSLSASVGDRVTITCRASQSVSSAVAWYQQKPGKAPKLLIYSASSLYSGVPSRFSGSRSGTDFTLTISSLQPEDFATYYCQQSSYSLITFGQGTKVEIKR	condition not met
Fab 33C4 (Fab, V domains shown, also called R2C3; not shown: His tag at the C-terminus of the heavy chain) VH: EVQLVESGGGLVQPGGSLRLSCAASGFNLYSSSMHWVRQAPGKGLEWVASIYPYYGYTYYADSVKGRFTISADTSKNTAYLQMNSLRAEDTAVYYCARPTTSRVNKKLFRVSVLHPGSYGMDYWGQGTLVTVSS VL: DIQMTQSPSSLSASVGDRVTITCRASQSVSSAVAWYQQKPGKAPKLLIYSASSLYSGVPSRFSGSRSGTDFTLTISSLQPEDFATYYCQQASYLITFGQGTKVEIKR	condition met
Fab R2C11 (Fab, V domains shown) VH: EVQLVESGGGLVQPGGSLRLSCAASGFNLYYSSIHWVRQAPGKGLEWVAYIYPSYSYTYYADSVKGRFTISADTSKNTAYLQMNSLRAEDTAVYYCARRYGSDVFCVGCFFGVRLSYVMDYWGQGTLVTVSS VL: DIQMTQSPSSLSASVGDRVTITCRASQSVSSAVAWYQQKPGKAPKLLIYSASSLYSGVPSRFSGSRSGTDFTLTISSLQPEDFATYYCQQYVSSGSLITFGQGTKVEIKR	condition met
Fab R2C4 (Fab, V domains shown) VH: EVQLVESGGGLVQPGGSLRLSCAASGFNLSYYYMHWVRQAPGKGLEWVAYISSYSGYTYYADSVKGRFTISADTSKNTAYLQMNSLRAEDTAVYYCARGWRVYADRGHVRGYFRVWYGMDYWGQGTLVTVSS VL: DIQMTQSPSSLSASVGDRVTITCRASQSVSSAVAWYQQKPGKAPKLLIYSASSLYSGVPSRFSGSRSGTDFTLTISSLQPEDFATYYCQQGAGLITFGQGTKVEIKR	condition met
Fab R2C8 (Fab, V domains shown) VH: EVQLVESGGGLVQPGGSLRLSCAASGFNISSSSIHWVRQAPGKGLEWVASIYPYYGSTSYADSVKGRFTISADTSKNTAYLQMNSLRAEDTAVYYCARPGRHLQTTFKGYQFKYSRYIYAMDYWGQGTLVTVSS VL: DIQMTQSPSSLSASVGDRVTITCRASQSVSSAVAWYQQKPGKAPKLLIYSASSLYSGVPSRFSGSRSGTDFTLTISSLQPEDFATYYCQQWGHHGYLITFGQGTKVEIKR	condition met
